biological target: IRAK4 protein in THP-1 cells (Homo sapiens, UniProt Q9NWZ3); construct: endogenous in cells; host or cells: THP-1; assay: Degradation of IRAK4 in THP-1 cells (Western blot); format: cell-based; conditions: 24 hours, compound 1-3000 nM
Sequence (Q9NWZ3 whole entry): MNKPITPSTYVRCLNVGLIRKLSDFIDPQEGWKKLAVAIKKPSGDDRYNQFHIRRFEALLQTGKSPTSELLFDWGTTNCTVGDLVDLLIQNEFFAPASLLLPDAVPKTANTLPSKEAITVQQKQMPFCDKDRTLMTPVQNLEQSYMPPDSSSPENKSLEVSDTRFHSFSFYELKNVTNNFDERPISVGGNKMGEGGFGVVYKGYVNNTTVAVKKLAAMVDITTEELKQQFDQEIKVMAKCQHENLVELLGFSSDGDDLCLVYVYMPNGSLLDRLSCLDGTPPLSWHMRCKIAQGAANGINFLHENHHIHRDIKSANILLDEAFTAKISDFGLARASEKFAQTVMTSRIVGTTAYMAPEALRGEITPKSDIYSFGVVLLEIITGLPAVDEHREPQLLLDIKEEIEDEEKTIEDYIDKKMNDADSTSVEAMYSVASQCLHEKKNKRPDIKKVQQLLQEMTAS
Assign classes using reported DC50 values and the ranges bucket A = under 2 nM, bucket B = from 2 nM up to 4 nM, bucket C = 4 nM and over, please.

Request: Please report the category associated with COc1cc2nn(C3CCN(CC4CCC5(CC4)CCN(C(=O)c4ccc(Cl)c(N6CCC(=O)NC6=O)c4)CC5)CC3)cc2cc1NC(=O)c1cccc(C(F)(F)F)n1 , nothing else.
Result: bucket C

Request: Please report the category associated with CC(C)(O)c1cc2nn(C3CCN(CCC4CC5(CCN(C(=O)c6ccc(Cl)c(N7CCC(=O)NC7=O)c6)CC5)C4)CC3)cc2cc1NC(=O)c1cccc(C(F)(F)F)n1 , nothing else.
Result: bucket B

Request: Please report the category associated with COc1cc2nn(C3CCN(CCCC4CCN(C(=O)c5ccc(OC)c(N6CCC(=O)NC6=O)c5)CC4)CC3)cc2cc1NC(=O)c1cccc(C(F)(F)F)n1 , nothing else.
Result: bucket C

Request: Please report the category associated with CN(CCC1CCN(C(=O)c2ccc(Cl)c(N3CCC(=O)NC3=O)c2)CC1)C[C@H]1CC[C@H](n2cc3cc(NC(=O)c4cccc(C(F)(F)F)n4)c(C(C)(C)O)cc3n2)CC1 , nothing else.
Result: bucket B

Request: Please report the category associated with COc1cc2nn([C@H]3CC[C@H](N(C)C4CCC5(CC4)CCN(C(=O)c4ccc(Cl)c(N6CCC(=O)NC6=O)c4)CC5)CC3)cc2cc1NC(=O)c1cccc(C(F)(F)F)n1 , nothing else.
Result: bucket B

Request: Please report the category associated with CC(C)(O)c1cc2nn(C3CCN(CCC4CCC5(CC4)CCN(C(=O)c4ccc(Cl)c(N6CCC(=O)NC6=O)c4)CC5)CC3)cc2cc1NC(=O)c1cccc(C(F)(F)F)n1 , nothing else.
Result: bucket A

Request: Please report the category associated with COc1ccc(C(=O)N2CCC3(CC2)CC(CCN2CCC(n4cc5cc(NC(=O)c6cccc(C(F)(F)F)n6)c(C(C)(C)O)cc5n4)CC2)C3)cc1N1CCC(=O)NC1=O , nothing else.
Result: bucket A
